Data origin, for the record: patent US11912668B2

# TARGET OR TEST SYSTEM: PERK kinase (Homo sapiens (Human))
# Sequence (Q9NZJ5 other isoform, or with tags, fused parts or gaps): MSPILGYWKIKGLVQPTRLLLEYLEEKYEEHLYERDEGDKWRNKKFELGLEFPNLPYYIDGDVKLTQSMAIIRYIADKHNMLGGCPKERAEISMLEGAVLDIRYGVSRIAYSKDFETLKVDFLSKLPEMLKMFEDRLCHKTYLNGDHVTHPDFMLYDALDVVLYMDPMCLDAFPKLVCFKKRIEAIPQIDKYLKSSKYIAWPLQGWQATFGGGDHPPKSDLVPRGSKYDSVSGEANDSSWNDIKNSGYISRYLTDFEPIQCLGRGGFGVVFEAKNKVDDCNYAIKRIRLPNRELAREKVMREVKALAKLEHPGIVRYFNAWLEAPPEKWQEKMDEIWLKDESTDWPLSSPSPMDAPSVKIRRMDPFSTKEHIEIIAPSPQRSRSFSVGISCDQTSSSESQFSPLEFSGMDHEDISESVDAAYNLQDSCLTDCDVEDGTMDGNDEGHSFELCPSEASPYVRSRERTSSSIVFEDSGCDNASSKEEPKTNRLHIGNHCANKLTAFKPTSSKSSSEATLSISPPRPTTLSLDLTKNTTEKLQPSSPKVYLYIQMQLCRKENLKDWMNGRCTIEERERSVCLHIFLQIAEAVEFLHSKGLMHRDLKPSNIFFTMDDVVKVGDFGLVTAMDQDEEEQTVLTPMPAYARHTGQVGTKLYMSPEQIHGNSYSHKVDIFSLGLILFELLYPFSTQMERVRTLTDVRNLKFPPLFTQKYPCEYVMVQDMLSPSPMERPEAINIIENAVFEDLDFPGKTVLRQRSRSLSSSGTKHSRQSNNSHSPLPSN
pIC50: −log10 of the molar value.
QUANTITY MEASURED: pIC50

>>> endpoint_result("CNc1ncc2cc(-c3cccc(NS(=O)(=O)c4cc(Cl)cnc4NC4CC4)c3F)c(NC)nc2n1 [Example 137]")
"6.30 to 7.00"
>>> endpoint_result("CNc1cc2ncc(-c3cccc(NS(=O)(=O)c4cc(Cl)cnc4OC)c3F)cc2cn1 [Example 56]")
"≥ 7.00"
>>> endpoint_result("CNc1ncc2cc(-c3cccc(NS(=O)(=O)c4cc(Cl)cnc4OC)c3OC)c(C)nc2n1 [Example 89]")
"≥ 7.00"
>>> endpoint_result("CNc1ncc2cc(-c3ccc(F)c(NS(=O)(=O)c4cc(Cl)cnc4OC)c3F)c(C)nc2n1 [Example 46]")
"5.00 to 6.00"
>>> endpoint_result("CNc1ncc2cc(-c3cccc(NS(=O)(=O)c4cccnc4OC)c3F)c(NC)nc2n1 [Example 156]")
"6.00 to 6.30"
>>> endpoint_result("CNc1cc2ncc(-c3cc(F)cc(NS(=O)(=O)c4cc(Cl)cnc4OC)c3)cc2cn1 [Example 58]")
"5.00 to 6.00"
>>> endpoint_result("CNc1ncc2cc(-c3cc(NS(=O)(=O)c4cc(Cl)cnc4OC)cc(F)c3C)c(NC)nc2n1 [Example 34]")
"6.30 to 7.00"
>>> endpoint_result("CNc1ncc2cc(-c3cccc(NS(=O)(=O)c4cc(F)cc(CO)c4F)c3F)c(NC)nc2n1 [Example 178]")
"6.30 to 7.00"
>>> endpoint_result("CNc1ncc2cc(-c3ccnc(NS(=O)(=O)c4cc(Cl)cnc4OC)c3F)c(NC)nc2n1 [Example 144]")
"6.30 to 7.00"
>>> endpoint_result("CNc1ncc2cc(-c3cccc(NS(=O)(=O)c4cc(Cl)cnc4NC)c3F)c(C)nc2n1 [Example 90]")
"≥ 7.00"
>>> endpoint_result("CNc1ncc2cc(-c3cccc(NS(=O)(=O)c4ccc(Br)c(C(F)(F)F)c4)c3F)ccc2n1 [Example 71]")
"5.00 to 6.00"
>>> endpoint_result("CNc1ncc2cc(-c3cccc(NS(=O)(=O)c4cc(F)c(Br)cc4F)c3F)ccc2n1 [Example 72]")
"6.30 to 7.00"
>>> endpoint_result("CNc1ncc2cc(-c3cccc(NS(=O)(=O)c4cc(Cl)cnc4OC)c3Cl)ccc2n1 [Example 62]")
"≥ 7.00"
>>> endpoint_result("CNc1cc2nc(C)c(-c3cccc(NS(=O)(=O)c4cc(Cl)cnc4NC)c3F)cc2cn1 [Example 78]")
"≥ 7.00"
>>> endpoint_result("CNc1ncc2cc(-c3ccnc(NS(=O)(=O)c4cc(Cl)cnc4OC)c3F)c(OC)nc2n1 [Example 136]")
"6.30 to 7.00"
>>> endpoint_result("CNc1ncc2cc(-c3cccc(NS(=O)(=O)c4ccc(Cl)nc4OC)c3F)c(NC)nc2n1 [Example 142]")
"6.30 to 7.00"

---

# Tested on: ATF4 in CCRF-CEM leukemia cells (PERK)
# PROTOCOL TEXT: CCRF-CEM TG ATF4 ELISA, phenotypic assay for cellular inhibition of PERK preactivated by thapsigargin
# Assay type: cell-based
# STUDY CONDITIONS: Homo sapiens; Thapsigargin (1 μM) stimulated CCRF-CEM cells
QUANTITY MEASURED: IC50

>>> endpoint_result("CNc1cc2nc(NC)c(-c3cccc(NS(=O)(=O)c4cc(Cl)cnc4OC)c3Cl)cc2cn1")
"500 to 1000 nM"
>>> endpoint_result("CNc1ncc2cc(-c3cccc(NS(=O)(=O)c4cc(Cl)cnc4NC)c3F)c(C)nc2n1")
"1000 to 10000 nM"
>>> endpoint_result("CNc1cc2nc(OC)c(-c3cccc(NS(=O)(=O)c4cc(Cl)cnc4OC)c3F)cc2cn1")
"1000 to 10000 nM"
>>> endpoint_result("CNc1cc2nc(C)c(-c3cc(F)cc(NS(=O)(=O)c4cc(Cl)cc(CO)c4Cl)c3)cc2cn1")
"1000 to 10000 nM"
